assay: NCI Yeast Anticancer Drug Screen. Data for the mec2-1 strain (AID 157); conditions: S. cerevisiae mec2-1 strain; at 50.0 µM unless noted
Compounds without any hit were thinned out: in the full panel of roughly 79,000, 15% have a hit. The source made the active and inactive calls. No stated cut-off is given here; in the data, active means growth inhibition above about 70%; inactive means the rest.
Labels: yes (1) (active), no (0) (inactive)

>>> cat("C[N+]1(C)N=C([O-])N(c2ccccc2Cl)C1=O")
"no (0)"
>>> cat("CCCCCC(Br)C(Br)CC(Br)C(Br)CC(Br)C(Br)CCCCC(=O)O (stereo unspecified)")
"no (0)"
>>> cat("CCOC(=O)C(CC(C)C)NC(=O)c1ccc(C)c(OCc2ccccc2)c1[N+](=O)[O-] (stereo unspecified)")
"no (0)"
>>> cat("CN(C)C(=S)S(=O)(=O)c1ccccc1")
"yes (1)"
>>> cat("CCCCCCCCCCCCC(=O)N1CCOCC1")
"yes (1)"
>>> cat("Cc1ccc(S(=O)(=O)NNC(=O)CCn2[nH]c(=O)c(Cl)c(Cl)c2=O)cc1")
"no (0)"
>>> cat("CC(C)=CC(=O)CC1(C)CCC(c2ccoc2)O1 (stereo unspecified)")
"no (0)"
>>> cat("CCC(=O)Cc1nc2n(c1O)/C(=N/C(=O)Nc1ccc(Cl)cc1)N=N2")
"no (0)"
>>> cat("C=CCONC(=O)c1ccc(Cl)cc1")
"no (0)"
>>> cat("COc1ccc(NC(Nc2ccc(OC)cc2)C(Cl)(Cl)Cl)cc1")
"no (0)"
>>> cat("Clc1cc(NCc2ccco2)ncn1")
"no (0)"
>>> cat("O=C(O)CCNc1ccc(Cl)cc1[N+](=O)[O-]")
"no (0)"
>>> cat("CCCCCCCCCCCCCCCCCCc1ccc(O)cc1O")
"no (0)"
>>> cat("O=C1NCCCC1C(=O)Nc1cccc2c1NCCC2 (stereo unspecified)")
"no (0)"
>>> cat("CCOC(=O)C1=C(O)C[C@]2(O)C3CC=C(C)[C@@H]4CCO[C@](OC)(C[C@H]2C1)[C@]34C(=O)OC (stereo partly specified)")
"no (0)"
>>> cat("O=C(CC1=Nc2nnc(-c3nnc4n3C(=O)C(CC(=O)c3cccnc3)=N4)n2C1=O)c1cccnc1")
"no (0)"
>>> cat("Cn1c(Nc2ccccc2)c(C=Nc2ccccc2)c(=O)n(C)c1=O")
"no (0)"
>>> cat("O=C1OC(=O)C2C(Cl)C(Cl)C12 (stereo unspecified)")
"no (0)"
>>> cat("CC(=O)Oc1ccc(Cc2ccccc2)cc1")
"no (0)"
>>> cat("CN1C(=O)C(c2c[nH]c3ccccc23)N(C)C(=O)C1c1c[nH]c2ccccc12 (stereo unspecified)")
"no (0)"
>>> cat("C/C(=N\\NC(=O)Nc1ccc(N=Nc2ccccc2)cc1)c1ccncc1")
"no (0)"

====

test: NCI Yeast Anticancer Drug Screen. Data for the rad50 strain (AID 155);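 further: 0% = growth of vehicle-only cultures of the same strain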; details: S. cerevisiae rad50 strain growth inhibition, hits give high values; at 50.0 µM unless noted
This is part of a sample that, as a whole, favours compounds with a hit. Of some 79,000 tested, about 15% had one in any assay.
Measured endpoint: growth inhibition (%)

>>> data_value("Fc1ccc2c(c1)-c1ccccc1C2")
-0.1
>>> data_value("CC(C)OC(=O)/C=C/CCCC1CCCCC1")
-10.5
>>> data_value("COc1ccc(-n2cnc3c2NC(C)(C)N=C3C(N)=O)c(OC)c1")
-17.8
>>> data_value("Cc1cc(N(CCCCl)CCCCl)ccc1C=Nc1cc(Cl)c(O)c(Cl)c1")
71.8
>>> data_value("O=c1ccc2ccc3[nH]onc3c2c1")
10.2
>>> data_value("CCOC(=O)CNC(=O)C(CCC(=O)N(C)O)NC(=O)CCC(N)C(=O)O (stereo not given)")
-20.1
>>> data_value("O=C(CO[N+](=O)[O-])OC/C=C/c1ccccc1")
-4.25
>>> data_value("CCCN(CCC)CC(O)CNc1cc(OC)cc2cccnc12 (stereo not given)")
9.75
>>> data_value("COc1cc(CNc2nc3ccc(C(F)(F)F)cc3nc2-c2ccccc2)cc(OC)c1OC")
-14.3
>>> data_value("CCc1ccc2c(c1)C(=O)c1ccccc1C2=O")
4

Data provenance is PubChem BioAssay (NCI).
